Some compounds, each annotated with its measured MRT.
# assayMethodText: MRT in ICR mouse at 25 mg/kg, po administered as single dose and measured upto 24 hrs by LC-MS/MS analysis
# Assay type: ADME, organism-based
# conditionInfo: in vivo
Number only, in h; omit the unit.

Consider CC1CCCN(C[C@H]2O[C@@H](n3cnc4c(NCc5cccc(Cl)c5)ncnc43)[C@H](O)[C@@H]2O)C1 (some centres not stated) . Its measured MRT is 3.95

Consider "O[C@@H]1[C@H](O)[C@@H](CNCc2ccc(C(F)(F)F)cc2)O[C@H]1n1cnc2c(NCc3cccc(Cl)c3)ncnc21" . Its measured MRT is 3.82

###

# assayMethodText: AUC (0 to t) in ICR mouse at 25 mg/kg, po administered as single dose and measured upto 24 hrs by LC-MS/MS analysis
# Format: ADME, organism-based
# conditionInfo: in vivo
Some compounds, each annotated with its measured AUC(0-t) at 24 h.
Number only, in ng·h/mL; omit the unit.

compound: O[C@@H]1[C@H](O)[C@@H](CNCc2ccc(C(F)(F)F)cc2)O[C@H]1n1cnc2c(NCc3cccc(Cl)c3)ncnc21
unitSymbol: ng·h/mL
observedMeasurement: 2220

Next up:
Consider CC1CCCN(C[C@H]2O[C@@H](n3cnc4c(NCc5cccc(Cl)c5)ncnc43)[C@H](O)[C@@H]2O)C1 (some centres not stated) . Its measured AUC(0-t) at 24 h is 2910

###

Some compounds, each annotated with its measured LD50 at 336 h.
# assayMethodText: Acute toxicity in po dosed ICR mouse assessed as lethal dose measured after 2 weeks
# Type: organism-based
# conditionInfo: in vivo

compound: O[C@@H]1[C@H](O)[C@@H](CNCc2ccc(C(F)(F)F)cc2)O[C@H]1n1cnc2c(NCc3cccc(Cl)c3)ncnc21
LD50 at 336 h: > 200 mg/kg

Next up:
Consider CC1CCCN(C[C@H]2O[C@@H](n3cnc4c(NCc5cccc(Cl)c5)ncnc43)[C@H](O)[C@@H]2O)C1 (some centres not stated) . Its measured LD50 at 336 h is > 200 mg/kg

###

# assayMethodText: Tmax in ICR mouse at 25 mg/kg, po administered as single dose and measured upto 24 hrs by LC-MS/MS analysis
# Type: ADME, organism-based
# conditionInfo: in vivo
metric: Tmax (min)
Number only, in min; omit the unit.

compound: O[C@@H]1[C@H](O)[C@@H](CNCc2ccc(C(F)(F)F)cc2)O[C@H]1n1cnc2c(NCc3cccc(Cl)c3)ncnc21
Tmax (min): 25.2

Next up:
Consider CC1CCCN(C[C@H]2O[C@@H](n3cnc4c(NCc5cccc(Cl)c5)ncnc43)[C@H](O)[C@@H]2O)C1 (some centres not stated) . Its measured Tmax is 30

###

# assayMethodText: Half-life in ICR mouse at 25 mg/kg, po administered as single dose and measured upto 24 hrs by LC-MS/MS analysis
# Assay type: ADME, organism-based
# conditionInfo: in vivo
metric: half-life
Reply with the number and its unit after it.

compound: O[C@@H]1[C@H](O)[C@@H](CNCc2ccc(C(F)(F)F)cc2)O[C@H]1n1cnc2c(NCc3cccc(Cl)c3)ncnc21
observedMeasurement: 2.46 h

Consider CC1CCCN(C[C@H]2O[C@@H](n3cnc4c(NCc5cccc(Cl)c5)ncnc43)[C@H](O)[C@@H]2O)C1 (some centres not stated) . Its measured half-life is 3.56 h

###

# assayMethodText: Cmax in ICR mouse at 25 mg/kg, po administered as single dose and measured upto 24 hrs by LC-MS/MS analysis
# Type: ADME, organism-based
# conditionInfo: in vivo
Some molecules, each annotated with its measured Cmax.
Number only, in ng/mL; omit the unit.

molecule: O[C@@H]1[C@H](O)[C@@H](CNCc2ccc(C(F)(F)F)cc2)O[C@H]1n1cnc2c(NCc3cccc(Cl)c3)ncnc21
unitSymbol: ng/mL
Cmax: 699

Next up:
Consider CC1CCCN(C[C@H]2O[C@@H](n3cnc4c(NCc5cccc(Cl)c5)ncnc43)[C@H](O)[C@@H]2O)C1 (some centres not stated) . Its measured Cmax is 837
